- testedOn: G-protein coupled bile acid receptor 1 (Homo sapiens, UniProt Q8TDU6)
- Sequence (Q8TDU6 whole entry): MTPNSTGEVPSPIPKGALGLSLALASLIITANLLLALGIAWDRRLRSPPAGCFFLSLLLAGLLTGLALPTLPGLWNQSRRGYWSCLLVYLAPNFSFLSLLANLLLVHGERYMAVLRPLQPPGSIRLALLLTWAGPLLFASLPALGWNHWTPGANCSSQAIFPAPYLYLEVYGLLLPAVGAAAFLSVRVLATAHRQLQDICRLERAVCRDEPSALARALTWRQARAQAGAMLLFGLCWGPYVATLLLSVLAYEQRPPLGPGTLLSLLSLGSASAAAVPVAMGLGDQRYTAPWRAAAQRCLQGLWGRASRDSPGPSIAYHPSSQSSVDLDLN
- procedureText: Positive allosteric modulator activity at human TGR5 expressed in HEK293T cells assessed as increase in cAMP accumulation incubated for 1 hr at 37 degC and further incubated for 1 hr at room temperature by glosensor cAMP accumulation assay
- Assay type: functional, cell-based
readoutType: pEC50
The value called pEC50 is obtained by taking minus log10 of the concentration in mol/L.

In one line, give reported pEC50 of the entry CO[C@@H]1C[C@@H]2C[C@H](O)CC[C@]2(C)[C@H]2CC(=O)[C@]3(C)[C@@H]([C@H](C)CCC(=O)Oc4ccccc4)CC[C@H]3[C@H]12 .
5.26

Query pEC50 for CO[C@@H]1C[C@@H]2C[C@H](O)CC[C@]2(C)[C@H]2C[C@H](O)[C@]3(C)[C@@H]([C@H](C)CCC(=O)Oc4ccccc4)CC[C@H]3[C@H]12
4.73

Report pEC50, nothing else, for this compound: CO[C@@H]1C[C@@H]2C[C@H](O)CC[C@]2(C)[C@H]2C[C@H](O)[C@]3(C)[C@@H]([C@H](C)CCC(=O)OC4CC4)CC[C@H]3[C@H]12
5.05

// fetch pEC50 given entry CCOC(=O)CC[C@@H](C)[C@H]1CC[C@H]2[C@@H]3[C@H](OC)C[C@@H]4C[C@H](O)CC[C@]4(C)[C@H]3C[C@H](O)[C@]12C
4.70

Tell me pEC50 reported for CO[C@@H]1C[C@@H]2C[C@H](O)CC[C@]2(C)[C@H]2CC(=O)[C@]3(C)[C@@H]([C@H](C)CCC(=O)OCc4ccccc4)CC[C@H]3[C@H]12
4.12

Look up pEC50 of CO[C@@H]1C[C@@H]2C[C@H](O)CC[C@]2(C)[C@H]2CC(=O)[C@]3(C)[C@@H]([C@H](C)CCC(=O)OC(C)C)CC[C@H]3[C@H]12 and report it.
4.92

Please look at this compound and report its pEC50: CO[C@@H]1C[C@@H]2C[C@H](O)CC[C@]2(C)[C@H]2C[C@H](O)[C@]3(C)[C@@H]([C@H](C)CCC(=O)OC(C)C)CC[C@H]3[C@H]12
5.01

Determine its reported pEC50: COC(=O)CC[C@@H](C)[C@H]1CC[C@H]2[C@@H]3[C@H](OC)C[C@@H]4C[C@H](O)CC[C@]4(C)[C@H]3C[C@H](O)[C@]12C
5.10

Give the measured pEC50 for CCOC(=O)CC[C@@H](C)[C@H]1CC[C@H]2[C@@H]3[C@H](OC)C[C@@H]4C[C@H](O)CC[C@]4(C)[C@H]3CC(=O)[C@]12C
4.50

Return the recorded pEC50 value; entry: CO[C@@H]1C[C@@H]2C[C@H](O)CC[C@]2(C)[C@H]2C[C@H](O)[C@]3(C)[C@@H]([C@H](C)CCC(=O)OCC4CCCC4)CC[C@H]3[C@H]12
4.59

Hey, just so you know, these numbers are from ChEMBL document CHEMBL5370567.
